# Protocol Description: Oral bioavailability in CD1 mouse at 10 mg/kg
# Type: ADME, organism-based
# Cond: in vivo

{"columns": ["Smiles Representation", "bioavailability (%)"],
 "data": [
  ["NC(=O)c1cccc2[nH]c(-c3ccc(-c4ncc[nH]4)cc3)nc12", 0],
  ["NC(=O)c1cccc2[nH]c(-c3ccc(-c4cccnc4)cc3)nc12", 73],
  ["NC(=O)c1cccc2[nH]c(-c3ccc(-c4nnco4)cc3)nc12", 41],
  ["NC(=O)c1cccc2[nH]c(-c3ccc(-c4cnco4)cc3)nc12", 6],
  ["NC(=O)c1cccc2[nH]c(-c3ccc(-c4ccccn4)cc3)nc12", 141],
  ["NC(=O)c1cccc2[nH]c(-c3ccc(-c4ccncc4)cc3)nc12", 44]
]}
